Biological target: T1, human PVRIG-his (AcroBiosystems, Cat NO. PVG-H52H4) (human, UniProt Q6DKI7 41-171, limits assumed)
T1 construct: also called human PVRIG protein
T1 sequence (looked up): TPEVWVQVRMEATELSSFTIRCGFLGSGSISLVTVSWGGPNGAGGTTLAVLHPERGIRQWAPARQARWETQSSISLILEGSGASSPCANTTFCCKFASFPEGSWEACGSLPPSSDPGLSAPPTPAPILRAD
Assay: ELISA, antigen coated
// % relative activity parental antibody/tested antibody lookup, one value per entry
Quantity measured: % relative activity parental antibody/tested antibody (%)

>  <Binder>
PVRIG-A118-H4 (Fc fusion, humanized variant of PVRIG-A118; also called A118.VH4; not shown: constant part not restated for the humanized forms; parents are VHH-hinge-CH2-CH3 of human IgG1; detected by anti-human) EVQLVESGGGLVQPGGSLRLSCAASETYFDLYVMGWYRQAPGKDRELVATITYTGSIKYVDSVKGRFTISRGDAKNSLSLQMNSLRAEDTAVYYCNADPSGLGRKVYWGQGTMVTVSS

>  <Unit abbreviation>
%

>  <Value measured>
95.8

$$$$
>  <Binder>
PVRIG-A50-H1 (Fc fusion, humanized variant of PVRIG-A50; also called A50.VH1; not shown: constant part not restated for the humanized forms; parents are VHH-hinge-CH2-CH3 of human IgG1; detected by anti-human) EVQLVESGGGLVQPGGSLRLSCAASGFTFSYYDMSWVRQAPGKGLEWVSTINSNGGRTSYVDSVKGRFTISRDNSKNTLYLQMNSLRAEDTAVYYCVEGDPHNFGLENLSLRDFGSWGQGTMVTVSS

>  <Unit abbreviation>
%

>  <Value measured>
105

$$$$
